Tested on: barnyard grass seeds
Assay: Petri dish seed germination method: inhibition of root and stem growth of barnyard grass
Assay type: in vivo
Details: 0.625 mmol/L, 96 hours incubation
Here, each record is paired with measured inhibition rate on the root growth of barnyard grass seeds data.
ATTRIBUTE_MEASURED: inhibition rate on the root growth of barnyard grass seeds (%)

> print(dat)
                                   compound  value
1  CC1(NCc2ccc(Cl)cc2)CCC(C(C)(C)NCc2ccc(Cl)cc2)CC1 (centres unmarked)   87.3
2  CN(C)c1ccc(CNC2(C)CCC(C(C)(C)NCc3ccc(N(C)C)cc3)CC2)cc1 (centres unmarked)   21.0
3  CC1(N=Cc2ccc(F)cc2)CCC(C(C)(C)N=Cc2ccc(F)cc2)CC1 (centres unmarked) [reference compound]   72.8
4  CC1(NCc2cccs2)CCC(C(C)(C)NCc2cccs2)CC1 (centres unmarked)    5.8
5  COc1ccc(C=NC2(C)CCC(C(C)(C)N=Cc3ccc(OC)cc3)CC2)cc1 (centres unmarked) [reference compound]   66.7
